System: BT-549 breast
Assay: NCI tumour cell line growth inhibition, 48 h
Quick reference for TGI among some compounds
Report the value in µM with no unit label.

{"compound": "CC(C)=CCc1c(OC(=O)c2c(C)cc(O)cc2O)cc(CO)c(CO)c1O", "unit descriptor": "µM", "TGI": 41}

Lookup: I'd like to know its TGI. The compound in question is Cc1ccc(-c2csc(/N=C3\C(=O)Nc4ccccc43)n2)cc1
Found: 3.06

====

Tested on: SK-OV-3 ovarian
Experiment: NCI tumour cell line growth inhibition, 48 h
measurement kind: TGI

{"molecule": "O=C(c1ccc(Cl)cc1)c1ccc(OCCCOc2ccc(C(=O)c3ccc(Cl)cc3)cc2)cc1", "TGI": "> 100 µM"}
{"molecule": "Cc1c(Cl)nc(Nc2nc3ccccc3[nH]2)nc1Cl", "TGI": "> 100 µM"}

API: the following record is the query input.
Lookup: Query: TGI; subject: O=C(CP(=O)(O)O)NC(CC(=O)OCc1ccccc1)C(=O)OCc1ccccc1 (stereo not drawn)
Found: > 100 µM

====

Each record here notes measured TGI.
Test system: COLO 205 colon
Assay: NCI tumour cell line growth inhibition, 48 h

{"compound": "O=c1nc(/C=C/c2ccccc2Cl)cc2n1CCN2CCO", "system tested": "COLO 205 colon", "measured result": "> 100 µM"}

Lookup: # query: TGI of entry O=C(O)c1cc2ccccc2c(N=Nc2ccc(S(=O)(=O)Nc3nccs3)cc2)c1O
Found: > 100 µM

Lookup: // next record CC(C)(C)N=NNc1cn(C2OC(CO)C(O)C2O)c(=O)[nH]c1=O (centres undefined)
Found: > 100 µM

Lookup: For O=C(CC(c1ccccc1)c1c(O)c2ccccc2oc1=O)c1ccccc1 (centres undefined) then?
Found: > 100 µM

Lookup: One more compound: C=C(c1ccc2nc(NC(=O)OC)[nH]c2c1)c1cccs1
Found: > 100 µM

Lookup: Moving on to COc1ccc(/C=N/n2cnc3c(sc(=S)n3-c3ccccc3)c2=O)cc1
Found: > 100 µM

====

Test system: SK-MEL-28 melanoma
Assay: NCI tumour cell line growth inhibition, 48 h; in the data active means GI50 below about 0.43 µM; inactive means the rest
I would appreciate it if you answered using one of these outcomes: active, inactive

{"molecule": "[Cl-].[O-]/N=C(\\c1ccccc1)c1ccccn1.[O-]/N=C(\\c1ccccc1)c1ccccn1.[O-]/N=C(\\c1ccccc1)c1ccccn1.[Sm+3]", "label": "inactive"}
{"molecule": "OCc1ccc(-c2ccc(-c3ccc(CO)o3)[se]2)o1", "label": "inactive"}

Lookup: Hi, do you know how N[C@H](C(=O)O)[C@H]1ON=C(Cl)[C@@H]1O came out in this test?
Found: inactive

Lookup: Next: CCCNNC(=O)/C=C/c1ccc(CNCCc2c(C)[nH]c3ccccc23)cc1
Found: active

Lookup: Please answer likewise for CCOC(=O)N1CCN(c2nc(Nc3cc(C)[nH]n3)c3ccccc3n2)CC1
Found: inactive

Lookup: Similarly, O=C1c2ccccc2-c2c1c1c(=O)[nH]c3ccccc3c1n2Cc1ccccc1 ?
Found: inactive

Lookup: Next molecule: CO[C@H]1/C=C/O[C@@]2(C)Oc3c(C)c(O)c4c(c3C2=O)C(=O)C(/C=N/N(c2ccccc2)c2ccccc2)=C(NC(=O)/C(C)=C\C=C\[C@H](C)[C@H](O)[C@@H](C)[C@@H](O)[C@@H](C)[C@H](OC(C)=O)[C@@H]1C)C4=O
Found: inactive
